Reported soluble fraction (log2) by item:
MEASUREMENT_DESCRIPTION: soluble fraction after stress (log2 fold change); higher = more stays soluble; pooled small domains, quantitative proteomics;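 note: 20 min heating vs room temperature control held 20 min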
CONDITION_DETAILS: stress: 75 degC
ENDPOINT_LABEL: soluble fraction (log2)

1. HMQAGILTDTAAKNARIKKIDTERLEAELDQKRIVIVTGFQGVDRNQNITTLGRGGSDTSAVALAAAVSIT
0.171
2. HMGEVISRSYPLLKTKAKPAEVSEALQKLIKAPATVTFDEKNEVFHINATRLQHTWAEGYFKGLHGK
-0.14
3. HMIERLVEFVHTLRHSGVRVSMAEAMDAAEALRHTPITERQIFKTALQSVLVKEHQDIPAFDAAFERFFL
-3.04
4. HMHFDQILAHAMDERGMNAVQLASLTGLSSGAISRYLAGDRQPTVYSIQQIAKALGVSADYLVG
-1.19
5. HMNNPISMQKLRQVIRLYGQGKGTKSINSMLGVSRNTIKKYLQVYHSSGINYESFLAMSDKELSAVFLV
-0.509
6. HMAQLKYEQIKSYLQAEAVKPESATRMPTVRELMRRFNVSLVTVNRALSELEHAKVIVRRQGAGIVAAQ
-0.662
7. HMGEIHALIPGLVSRLFVKPGDRVENGQGLLILEAMKMENEIDSPISGVVGKIYIKAGDKVEKGELIMEIN
-1.45
8. HMYITGAVIRKLREKNNITQLQLAERLRVSDKTISKWETGKGYPDITLLEPIAKTFSVSVTELISGDI
-2.46
